Target: T1, human gastric inhibitory peptide receptor (GIPR) (human, UniProt P48546 22-466)
T1 sequence (looked up): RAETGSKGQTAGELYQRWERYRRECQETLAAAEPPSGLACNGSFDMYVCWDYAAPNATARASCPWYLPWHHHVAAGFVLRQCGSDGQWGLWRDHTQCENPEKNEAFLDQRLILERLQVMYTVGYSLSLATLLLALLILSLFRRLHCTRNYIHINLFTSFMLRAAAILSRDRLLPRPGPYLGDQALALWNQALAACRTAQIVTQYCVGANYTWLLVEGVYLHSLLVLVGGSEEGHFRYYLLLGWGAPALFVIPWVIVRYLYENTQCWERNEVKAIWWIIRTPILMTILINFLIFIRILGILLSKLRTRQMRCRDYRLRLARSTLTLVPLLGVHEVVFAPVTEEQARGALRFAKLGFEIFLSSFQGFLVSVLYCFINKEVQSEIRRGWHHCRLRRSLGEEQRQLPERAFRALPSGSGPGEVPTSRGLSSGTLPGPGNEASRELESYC
Test: cell-based or functional assay

# Binder, Scale Unit, hGIPR cAMP Rel EC50
data = [
    ("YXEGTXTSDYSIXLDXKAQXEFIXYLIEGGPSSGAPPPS (Aib2, αMeF(2F)6, Aib13, Orn16, (2-[2-(2-Amino-ethoxy)-ethoxy]-acetyl)2-(γ-Glu)-CO-(CH2)16-CO2H on K17, Aib20, D-Glu24, C-terminal NH2) [Example 247]", "nM", 0.0622),
    ("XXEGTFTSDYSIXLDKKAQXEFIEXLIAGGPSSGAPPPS (D-Tyr1, Aib2, αMeL13, (2-[2-(2-Amino-ethoxy)-ethoxy]-acetyl)2-(γ-Glu)-CO-(CH2)18-CO2H on K17, Aib20, αMeY25, C-terminal NH2) [Example 292]", "nM", 0.0682),
    ("XXEGTFTSDYSIXLDKKAQXAFIXYLIAGGPSSGAPPPS (D-Tyr1, Aib2, αMeL13, (2-[2-(2-Amino-ethoxy)-ethoxy]-acetyl)2-(γ-Glu)-CO-(CH2)18-CO2H on K17, Aib20, D-Glu24, C-terminal NH2) [Example 352]", "nM", 0.127),
    ("YXEGTXTSDXSIXLDXKAQXEFIXXLIEGG (Aib2, αMeF(2F)6, 4Pal10, αMeF13 (so in the source), Orn16, (2-[2-(2-Amino-ethoxy)-ethoxy]-acetyl)2-(γ-Glu)-CO-(CH2)16-CO2H on K17, Aib20, D-Glu24, αMeY25, C-terminal NH2) [Example 265]", "nM", 0.0229),
    ("YXEGTFTSDYSILLDKKAQTAFIEYLIEGGPSSGAPPPS (Aib2, (2-[2-(2-Amino-ethoxy)-ethoxy]-acetyl)2-(γ-Glu)-CO-(CH2)18-CO2H on K17, C-terminal NH2) [Example 262]", "nM", 0.13),
    ("FXEGTFTSDYSIXLDKKAQXEFIEYLIAGGPSSGAPPPS (not fully specified; Aib2, αMeL13, (2-[2-(2-Amino-ethoxy)-ethoxy]-acetyl)2-(γ-Glu)-CO-(CH2)18-CO2H on K17, Aib20, C-terminal NH2) [Example 338]", "nM", 0.0472),
]
